- System: Human immunodeficiency virus 1
- method: Antiviral activity against HIV1 G9106 infected in human MT2 cells
- Type: functional, organism-based
- particulars: Human immunodeficiency virus 1, G9106, MT2
pEC50: −log10 of the molar value.
Entries and their pEC50 values follow.

{"molecule_smiles": "COc1cc(C)cc2c(-c3c(O)cc(O)c4c3C[C@H](C)N(C)[C@@H]4C)cc(-c3cc(-c4c(O)cc(O)c5c4C[C@@H](C)N[C@@H]5C)c4cc(C)cc(OC)c4c3O)c(O)c12", "pEC50": 4.82}
{"molecule_smiles": "COc1cc(O)c(-c2cc(-c3cc(-c4c(O)cc(O)c5c4C[C@@H](C)N[C@@H]5C)c4cc(C)cc(OC)c4c3O)c(O)c3c(OC)cc(C)cc23)c2c1C(C)=N[C@H](C)C2", "pEC50": 5.10}
{"molecule_smiles": "COc1cc(C)cc2c(-c3c(O)cc(O)c4c3C[C@@H](C)N[C@@H]4C)cc(-c3cc(-c4c(O)cc(O)c5c4C[C@@H](C)N[C@@H]5C)c4cc(C)cc(OC)c4c3O)c(O)c12", "pEC50": 4.72}
{"molecule_smiles": "COc1cc(O)c(-c2cc(-c3cc(-c4c(O)cc(O)c5c4C[C@@H](C)N[C@@H]5C)c4cc(C)cc(OC)c4c3O)c(O)c3c(OC)cc(C)cc23)c2c1[C@@H](C)N[C@H](C)C2", "pEC50": 4.96}

src = ChEMBL document CHEMBL1146434
